- ASSAYED SYSTEM: T1, cynomolgus monkey CD19 on peripheral blood B cells (cynomolgus monkey (Macaca fascicularis), UniProt A0A2K5W8L9 20-557)
- T1 construct: whole, on cells; also called cynomolgus monkey B cells
- T1 sequence: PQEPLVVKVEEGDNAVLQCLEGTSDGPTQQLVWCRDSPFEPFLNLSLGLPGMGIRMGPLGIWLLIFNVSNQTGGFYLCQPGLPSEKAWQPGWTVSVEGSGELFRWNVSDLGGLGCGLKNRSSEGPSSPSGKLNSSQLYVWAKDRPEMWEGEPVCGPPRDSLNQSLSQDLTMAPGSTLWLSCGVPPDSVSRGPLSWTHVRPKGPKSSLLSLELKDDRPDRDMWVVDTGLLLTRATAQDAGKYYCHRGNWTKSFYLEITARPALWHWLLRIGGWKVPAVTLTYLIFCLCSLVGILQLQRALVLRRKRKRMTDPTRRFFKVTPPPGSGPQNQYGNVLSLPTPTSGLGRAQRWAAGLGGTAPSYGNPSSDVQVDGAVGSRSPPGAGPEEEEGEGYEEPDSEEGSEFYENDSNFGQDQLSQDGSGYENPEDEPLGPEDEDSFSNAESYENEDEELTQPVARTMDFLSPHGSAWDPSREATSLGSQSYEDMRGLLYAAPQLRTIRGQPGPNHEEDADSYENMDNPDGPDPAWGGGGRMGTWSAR
- TEST SUMMARY: FACS, cynomolgus PBMC, CD20+ B cells
In this section we review reported Proportion of chimeric antibody positive cells to B cells (%) at 10 nM values for a set of binders.
EXPERIMENTAL ENDPOINT: Proportion of chimeric antibody positive cells to B cells (%) at 10 nM

INSERT INTO assay_data (binder, units_of_measure, experimental_value) VALUES
  ('F3.133.14 (antibody, human IgG1, V domains shown, human-murine chimeric antibody, human IgG1) VH: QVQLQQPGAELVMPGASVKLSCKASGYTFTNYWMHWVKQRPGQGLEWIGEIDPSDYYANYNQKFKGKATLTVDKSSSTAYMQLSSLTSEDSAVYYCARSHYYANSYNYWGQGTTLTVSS VL: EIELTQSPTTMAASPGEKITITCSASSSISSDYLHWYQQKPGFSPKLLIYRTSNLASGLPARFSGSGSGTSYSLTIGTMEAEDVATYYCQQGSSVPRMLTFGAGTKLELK', '%', 1),
  ('F4.48.12 (antibody, human IgG1, V domains shown, human-murine chimeric antibody, human IgG1) VH: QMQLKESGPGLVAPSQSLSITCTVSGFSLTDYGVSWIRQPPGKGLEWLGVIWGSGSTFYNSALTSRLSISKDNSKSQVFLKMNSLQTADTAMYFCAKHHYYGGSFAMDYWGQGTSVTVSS VL: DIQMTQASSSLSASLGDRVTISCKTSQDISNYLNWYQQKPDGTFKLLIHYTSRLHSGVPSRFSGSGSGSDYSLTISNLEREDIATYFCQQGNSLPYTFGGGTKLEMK', '%', 8),
  ('F4.191.1 (antibody, human IgG1, V domains shown, human-murine chimeric antibody, human IgG1) VH: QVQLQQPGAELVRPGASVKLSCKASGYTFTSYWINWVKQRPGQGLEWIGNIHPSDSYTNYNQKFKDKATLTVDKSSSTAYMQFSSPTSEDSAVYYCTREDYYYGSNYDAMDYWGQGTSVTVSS VL: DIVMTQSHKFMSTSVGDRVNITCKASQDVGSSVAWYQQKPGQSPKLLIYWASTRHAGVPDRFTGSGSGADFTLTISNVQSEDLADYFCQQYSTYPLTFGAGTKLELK', '%', 15),
  ('F5.8.6 (antibody, human IgG1, V domains shown, human-murine chimeric antibody, human IgG1) VH: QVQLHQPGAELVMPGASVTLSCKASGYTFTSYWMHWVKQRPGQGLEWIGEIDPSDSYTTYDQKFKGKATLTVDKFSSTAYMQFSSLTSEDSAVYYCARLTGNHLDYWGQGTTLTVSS VL: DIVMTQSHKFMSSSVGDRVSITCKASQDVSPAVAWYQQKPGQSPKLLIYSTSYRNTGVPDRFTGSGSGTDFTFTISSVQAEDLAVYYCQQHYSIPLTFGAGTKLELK', '%', 13),
  ('F5.10.6 (antibody, human IgG1, V domains shown, human-murine chimeric antibody, human IgG1) VH: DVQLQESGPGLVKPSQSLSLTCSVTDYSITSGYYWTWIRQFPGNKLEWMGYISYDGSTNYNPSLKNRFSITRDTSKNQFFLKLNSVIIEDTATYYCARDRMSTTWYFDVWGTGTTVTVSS VL: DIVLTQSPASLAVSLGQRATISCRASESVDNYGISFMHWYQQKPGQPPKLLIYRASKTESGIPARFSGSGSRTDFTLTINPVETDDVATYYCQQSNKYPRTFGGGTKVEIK', '%', 97),
  ('F3.5.1 (antibody, human IgG1, V domains shown, human-murine chimeric antibody, human IgG1) VH: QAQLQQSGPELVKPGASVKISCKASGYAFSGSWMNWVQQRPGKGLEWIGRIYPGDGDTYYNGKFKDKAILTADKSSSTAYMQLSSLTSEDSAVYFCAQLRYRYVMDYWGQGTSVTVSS VL: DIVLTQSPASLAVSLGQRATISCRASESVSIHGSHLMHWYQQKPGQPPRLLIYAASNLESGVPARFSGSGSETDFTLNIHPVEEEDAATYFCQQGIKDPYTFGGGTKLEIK', '%', 15),
  ('F4.37.6 (antibody, human IgG1, V domains shown, human-murine chimeric antibody, human IgG1) VH: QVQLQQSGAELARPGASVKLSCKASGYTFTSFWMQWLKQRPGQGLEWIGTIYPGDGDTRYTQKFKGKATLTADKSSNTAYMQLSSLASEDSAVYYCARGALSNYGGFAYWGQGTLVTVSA VL: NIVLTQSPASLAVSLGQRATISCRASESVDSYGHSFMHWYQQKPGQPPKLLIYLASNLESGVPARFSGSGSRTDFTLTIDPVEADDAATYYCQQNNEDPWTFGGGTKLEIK', '%', 2),
  ('F4.272.13 (antibody, human IgG1, V domains shown, human-murine chimeric antibody, human IgG1) VH: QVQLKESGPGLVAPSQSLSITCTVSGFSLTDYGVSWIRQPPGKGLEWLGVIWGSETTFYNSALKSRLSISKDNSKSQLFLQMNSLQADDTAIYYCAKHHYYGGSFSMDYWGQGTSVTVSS VL: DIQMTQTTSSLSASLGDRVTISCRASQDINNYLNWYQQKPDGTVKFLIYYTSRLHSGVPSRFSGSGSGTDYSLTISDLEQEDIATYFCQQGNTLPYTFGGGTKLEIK', '%', 2),
  ('F4.4.6 (antibody, human IgG1, V domains shown, human-murine chimeric antibody, human IgG1) VH: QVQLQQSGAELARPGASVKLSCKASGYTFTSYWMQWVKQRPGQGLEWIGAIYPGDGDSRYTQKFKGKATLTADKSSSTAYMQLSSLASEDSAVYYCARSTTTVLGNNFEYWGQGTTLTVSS VL: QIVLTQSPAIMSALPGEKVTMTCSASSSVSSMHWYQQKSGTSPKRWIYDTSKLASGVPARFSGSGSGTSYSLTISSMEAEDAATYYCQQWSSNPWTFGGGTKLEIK', '%', 2),
  ('F4.21.2 (antibody, human IgG1, V domains shown, human-murine chimeric antibody, human IgG1) VH: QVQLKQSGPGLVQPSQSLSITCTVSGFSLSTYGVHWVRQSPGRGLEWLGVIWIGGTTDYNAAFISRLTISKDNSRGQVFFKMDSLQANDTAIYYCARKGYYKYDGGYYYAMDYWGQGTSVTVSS VL: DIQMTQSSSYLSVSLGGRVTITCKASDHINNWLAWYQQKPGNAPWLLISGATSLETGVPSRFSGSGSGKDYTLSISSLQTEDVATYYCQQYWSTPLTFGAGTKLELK', '%', 3);
